Test system: biotinyl-Phe-oxazolone
Test: self-aminoacylation, catalytic enhancement (BFO) (fold over background); higher = more active; k-Seq, kA / k0A0; sequences stand for … in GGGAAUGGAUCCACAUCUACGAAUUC…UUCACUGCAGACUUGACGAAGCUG
Fewer inactive variants are shown than the library holds.
readout kind: self-aminoacylation
Give a plain numeric answer without units written out.

Task: Reported self-aminoacylation, sequence ACUCAUCUAGGUCAUCGGGUG [Fam2.2 aminoacylation ribozyme variant] : ____
Output: 42.4

Task: Reported self-aminoacylation, sequence AUUACCCUGGUCAUCGAGGGA [Fam2.1 aminoacylation ribozyme variant] : ____
Output: 9.56

Task: Reported self-aminoacylation, sequence AAGUUGGCUUAUAGUCGCAAG [Fam3.1 aminoacylation ribozyme variant] : ____
Output: 2.35

Task: Reported self-aminoacylation, sequence AUAACCCUCGUCAUCGAGUGA [Fam2.1 aminoacylation ribozyme variant] : ____
Output: 10.7

Task: Reported self-aminoacylation, sequence AAGCUUGCUAAUAGUCGCGAG [Fam3.1 aminoacylation ribozyme variant] : ____
Output: 26.9

Task: Reported self-aminoacylation, sequence AUUACCAUCGUCAUCGAGUGA [Fam2.1 aminoacylation ribozyme variant] : ____
Output: 5.68

Task: Reported self-aminoacylation, sequence AUUACCUUGGUCAUCGUGUGA [Fam2.1 aminoacylation ribozyme variant] : ____
Output: 16.2

Task: Reported self-aminoacylation, sequence AUUCACCCAGGUCAACGGGUG [Fam2.2 aminoacylation ribozyme variant] : ____
Output: 19.7

Task: Reported self-aminoacylation, sequence ACUCACCUACGUCAUCGGGUG [Fam2.2 aminoacylation ribozyme variant] : ____
Output: 57.3

Task: Reported self-aminoacylation, sequence CUACUUCAAACAAACGGUCUG [Fam1A.1 aminoacylation ribozyme variant] : ____
Output: 0.894

Task: Reported self-aminoacylation, sequence AUGCACCUAGGUAAUCGGGUG [Fam2.2 aminoacylation ribozyme variant] : ____
Output: 10.9

Task: Reported self-aminoacylation, sequence CUACUUCAUACAAUCGCUCUG [Fam1A.1 aminoacylation ribozyme variant] : ____
Output: 0.52

Task: Reported self-aminoacylation, sequence GUUCACCUAGGUCAUCGCGUG [Fam2.2 aminoacylation ribozyme variant] : ____
Output: 96.1

Task: Reported self-aminoacylation, sequence AAAUUUGCUAAUAGUCUCAAG [Fam3.1 aminoacylation ribozyme variant] : ____
Output: 2.03

Task: Reported self-aminoacylation, sequence AUUUCCCUGGUCAUCGAGUGA [Fam2.1 aminoacylation ribozyme variant] : ____
Output: 27.4

Task: Reported self-aminoacylation, sequence AUUCAACAAGGUCAUCGGGUG [Fam2.2 aminoacylation ribozyme variant] : ____
Output: 57.7

Task: Reported self-aminoacylation, sequence CUACUUCAAACAAUCGGCCCG [Fam1A.1 aminoacylation ribozyme variant] : ____
Output: 3.03

Task: Reported self-aminoacylation, sequence AAGUUUGCUAAUUGUGGCAAG [Fam3.1 aminoacylation ribozyme variant] : ____
Output: 0.701

---

Tested on: biotinyl-Leu-oxazolone
Assay: self-aminoacylation, catalytic enhancement (BLO) (fold over background); higher = more active; k-Seq, kA / k0A0; sequences stand for … in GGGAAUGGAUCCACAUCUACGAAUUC…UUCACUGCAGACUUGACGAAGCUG
This sample holds only a part of the variants without activity.
Assignment: determine reported self-aminoacylation for the given sequences.
Give a plain numeric answer without units written out.

Task: Reported self-aminoacylation, sequence CUACUUCAAUUAAUCGGUCUG [Fam1A.1 aminoacylation ribozyme variant] : ____
Output: 1.33

Task: Reported self-aminoacylation, sequence AUUCCCCUAGGUCACCGGGUG [Fam2.2 aminoacylation ribozyme variant] : ____
Output: 26.2

Task: Reported self-aminoacylation, sequence AUUACCCUGGUGAUCGAUUGA [Fam2.1 aminoacylation ribozyme variant] : ____
Output: 1.09

Task: Reported self-aminoacylation, sequence CCACCCUUCAAGCAAUCGCUC [Fam1B.1 aminoacylation ribozyme variant] : ____
Output: 2.55

Task: Reported self-aminoacylation, sequence AAGUAUGCUAAUAGUCGGAAG [Fam3.1 aminoacylation ribozyme variant] : ____
Output: 1.42

Task: Reported self-aminoacylation, sequence CUACUCCAAACAAUCGGUCUU [Fam1A.1 aminoacylation ribozyme variant] : ____
Output: 0.868

Task: Reported self-aminoacylation, sequence AAGCUUGCUAAUAGUCGCACG [Fam3.1 aminoacylation ribozyme variant] : ____
Output: 1.6

Task: Reported self-aminoacylation, sequence CCAAACUUCAAGCAUUCGGUC [Fam1B.1 aminoacylation ribozyme variant] : ____
Output: 1.84
